Total score (catalepsy) by entry:
- Test system: CGS 21680-induced catalepsy in mice
- test.summary: Activity on CGS 21680-induced Catalepsy
- Format: in vivo, mouse (male ddY)
- condition.description: 10 mg/kg oral, 10 animals, maximum 50 points; control 48
Counter-ions that a name gives are not always drawn.
A bare number is all that is needed in reply.

Recorded results for 10 compounds are shown here.
COc1ccc(Oc2cc3nc(-c4ccco4)nn3c(N)n2)cc1OC = 28
Nc1nc(N2CCN(CCc3ccccc3)CC2)cc2nc(-c3ccco3)nn12 = 9
COc1ccc(OC)c(CN2CCN(c3cc4nc(-c5ccco5)nn4c(N)n3)CC2)c1 = 10
Nc1nc(N2CCN(c3nc4ccccc4s3)CC2)cc2nc(-c3ccco3)nn12 = 16
Nc1nc(N2CCN(CCCCF)CC2)cc2nc(-c3ccco3)nn12 = 9
Nc1nc(N2CCN(CCOCc3ccccc3)CC2)cc2nc(-c3ccco3)nn12 [Compound 97, hydrochloride] = 4
CCCN1CCN(c2cc3nc(-c4ccco4)nn3c(N)n2)CC1 = 1
COCCCN1CCN(c2cc3nc(-c4ccco4)nn3c(N)n2)CC1 = 5
Nc1nc(Oc2ccc(Cl)cc2)cc2nc(-c3ccco3)nn12 = 15
Nc1nc(N2CCN(CCO)CC2)cc2nc(-c3ccco3)nn12 = 4

Total score (catalepsy) on CGS 21680-induced catalepsy in mice for Nc1nc(N2CCN(c3ncccn3)CC2)cc2nc(-c3ccco3)nn12 is 5
